Reference source for all entries: the supplement of paper PMC7877785

- METHOD_DESCRIPTION: self-splicing fitness, log relative to wild type (ln ratio); higher = more splicing; Tetrahymena group I intron in knt gene, E. coli kanamycin selection, DiMSum; sequences stand for … in CUCUCU…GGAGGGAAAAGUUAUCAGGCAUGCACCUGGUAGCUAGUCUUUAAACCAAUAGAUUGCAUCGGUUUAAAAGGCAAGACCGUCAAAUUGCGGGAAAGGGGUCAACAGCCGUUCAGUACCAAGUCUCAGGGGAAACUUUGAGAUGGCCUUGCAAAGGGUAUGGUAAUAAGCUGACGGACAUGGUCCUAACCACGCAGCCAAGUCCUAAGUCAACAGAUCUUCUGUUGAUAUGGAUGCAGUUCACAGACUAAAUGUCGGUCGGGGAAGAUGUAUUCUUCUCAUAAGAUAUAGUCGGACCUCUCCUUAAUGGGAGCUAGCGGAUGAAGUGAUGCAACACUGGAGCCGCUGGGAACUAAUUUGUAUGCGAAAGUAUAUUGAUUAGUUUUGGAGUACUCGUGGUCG;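 further: selection with 25 µg/mL kanamycin versus none on LB agar overnight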
- MEASUREMENT_CONDITIONS: 30 °C
Each entry belongs to exactly one class, chosen by where its self-splicing fitness (ln) falls: low interval = under -3, middle interval = from -3 up to -1, high interval = -1 and over

RESIDUE_SEQUENCE	CLASS_LABEL
GUCCAGCAAUAUUACGUGCC	middle interval
CGAGAGCAAUAUUACGGACU	middle interval
GGUUAGCAAUAUUACGGCGU	high interval
CUCUAGCAAUAUUACGUCAC	middle interval
AACCAGCAAUAUUACGCUCG	high interval
AAUUAGCAAUAUUACGCCAA	middle interval
CAAAAGCAAUAUUACGGACG	high interval
ACCGAGCAAUAUUACGUUCA	middle interval
AUAUAGCAAUAUUACGACGU	high interval
UGGUAGCAAUAUUACGCCGG	middle interval
AACGAGCAAUAUUACGUUAC	low interval
AUACAGCAAUAUUACGGCAA	high interval
AGCAAGCAAUAUUACGCUCA	middle interval
ACGCAGCAAUAUUACGGUGU	low interval
GUGGAGCAAUAUUACGUUAU	low interval

---

- METHOD_DESCRIPTION: self-splicing fitness, log relative to wild type (ln ratio); higher = more splicing; Tetrahymena group I intron in knt gene, E. coli kanamycin selection, DiMSum; sequences stand for … in CUCUCU…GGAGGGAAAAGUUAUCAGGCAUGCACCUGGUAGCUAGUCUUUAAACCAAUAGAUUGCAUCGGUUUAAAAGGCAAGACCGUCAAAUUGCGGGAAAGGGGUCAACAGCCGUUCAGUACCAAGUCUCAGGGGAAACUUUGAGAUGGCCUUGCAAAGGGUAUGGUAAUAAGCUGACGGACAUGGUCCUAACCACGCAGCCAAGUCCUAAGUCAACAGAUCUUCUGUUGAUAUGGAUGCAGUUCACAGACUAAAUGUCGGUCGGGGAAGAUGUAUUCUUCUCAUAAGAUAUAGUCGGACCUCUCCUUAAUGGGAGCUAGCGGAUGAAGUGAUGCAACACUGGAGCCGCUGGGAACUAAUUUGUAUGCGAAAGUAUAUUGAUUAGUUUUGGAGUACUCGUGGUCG
- MEASUREMENT_CONDITIONS: 37 °C
Decide by self-splicing fitness (ln): equal to or exceeding -1 means criterion met, less means criterion not met.

RESIDUE_SEQUENCE	CLASS_LABEL
AGAAAGCAAUAUUACGUAAG	criterion met
UCUUAGCAAUAUUACGCACU	criterion met
GGCAAGCAAUAUUACGUUAU	criterion met
CCCAAGCAAUAUUACGCUCC	criterion not met
UAGCAGCAAUAUUACGUGCC	criterion not met
AGCAAGCAAUAUUACGGCUU	criterion met
UAUCAGCAAUAUUACGGCUA	criterion met
UCUAAGCAAUAUUACGUACA	criterion not met
UUCGAGCAAUAUUACGGAAU	criterion not met
UGGAAGCAAUAUUACGGAUA	criterion not met
AUCGAGCAAUAUUACGCCGG	criterion not met
UUACAGCAAUAUUACGGGGC	criterion not met
AAUCAGCAAUAUUACGGUGU	criterion met
UAGGAGCAAUAUUACGUUCG	criterion met
CUACAGCAAUAUUACGGCAG	criterion met
GCCCAGCAAUAUUACGCCCG	criterion not met
